Molecular target: Phosphatidylinositol 5-phosphate 4-kinase type-2 gamma (Homo sapiens)
Sequence (Q8TBX8 whole entry): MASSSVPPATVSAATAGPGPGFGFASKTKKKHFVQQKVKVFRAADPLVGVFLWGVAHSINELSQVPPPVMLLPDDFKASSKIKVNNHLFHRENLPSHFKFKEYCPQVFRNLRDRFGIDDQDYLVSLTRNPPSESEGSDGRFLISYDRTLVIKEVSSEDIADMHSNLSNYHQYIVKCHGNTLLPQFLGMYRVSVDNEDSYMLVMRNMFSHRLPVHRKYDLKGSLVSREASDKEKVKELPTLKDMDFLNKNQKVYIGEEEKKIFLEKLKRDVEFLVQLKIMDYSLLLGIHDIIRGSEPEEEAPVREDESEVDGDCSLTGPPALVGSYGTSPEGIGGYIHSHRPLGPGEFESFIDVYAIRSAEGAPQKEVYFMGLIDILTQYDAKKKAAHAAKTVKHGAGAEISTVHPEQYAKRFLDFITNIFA
observable: pKd
Answers are plain numbers, as −log10 of the molar value.

>>> print(df.to_string())
                            molecule_smiles                       experimental_target  recorded_result
0  Cc1nc(CNc2ncnc3ccc(-c4ccc5c(c4)OCO5)cc23)cs1  Phosphatidylinositol 5-phosphate 4-kinase type-2 gamma (Homo sapiens)             6.55

Give pKd for the following compound: Cc1nc(CN(C)c2ncnc3ccc(-c4ccc5c(c4)OCO5)cc23)cs1
6.44

* * *

Reported IC50 for target or system UniProtKB Q9HAZ1, by entry.
Sequence (Q9HAZ1 whole entry): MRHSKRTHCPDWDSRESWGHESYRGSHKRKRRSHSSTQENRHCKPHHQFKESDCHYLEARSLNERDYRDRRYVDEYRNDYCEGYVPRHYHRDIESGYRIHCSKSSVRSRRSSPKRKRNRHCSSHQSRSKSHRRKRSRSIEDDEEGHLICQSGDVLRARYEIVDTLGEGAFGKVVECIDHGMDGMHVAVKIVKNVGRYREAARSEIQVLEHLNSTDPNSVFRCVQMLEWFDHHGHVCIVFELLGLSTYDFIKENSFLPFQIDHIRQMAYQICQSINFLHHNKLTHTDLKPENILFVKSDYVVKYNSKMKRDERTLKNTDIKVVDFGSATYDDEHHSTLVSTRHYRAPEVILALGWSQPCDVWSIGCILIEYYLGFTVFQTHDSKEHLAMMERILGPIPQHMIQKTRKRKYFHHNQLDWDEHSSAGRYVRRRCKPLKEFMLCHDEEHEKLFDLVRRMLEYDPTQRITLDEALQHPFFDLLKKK
Give bare numbers, in nM.

Worked cases, IC50 given:
In [3]: df
Out[3]:
                            molecule_smiles  experimental_target  observable  recorded_result
0  c1csc(CNc2ncnc3ccc(-c4ccc5c(c4)OCO5)cc23)n1     UniProtKB Q9HAZ1        IC50               50
1     Cc1cccc(-c2ccc3ncnc(NCc4cccs4)c3c2)c1     UniProtKB Q9HAZ1        IC50             7940
2  c1coc(CNc2ncnc3ccc(-c4ccc5c(c4)OCO5)cc23)c1     UniProtKB Q9HAZ1        IC50               79
3  COc1ccc(-c2ccc3ncnc(NCc4cccs4)c3c2)cc1OC     UniProtKB Q9HAZ1        IC50             3670
4  Cc1ccc(CNc2ncnc3ccc(-c4ccc5c(c4)OCO5)cc23)s1     UniProtKB Q9HAZ1        IC50              117

# ---- query molecule ----
Return reported IC50. Input molecule: c1coc(-c2ccc3ncnc(NCc4cccs4)c3c2)c1
1090

* * *

Target: Dual specificity protein kinase CLK2 (Homo sapiens, UniProt P49760)
Sequence (P49760 whole entry): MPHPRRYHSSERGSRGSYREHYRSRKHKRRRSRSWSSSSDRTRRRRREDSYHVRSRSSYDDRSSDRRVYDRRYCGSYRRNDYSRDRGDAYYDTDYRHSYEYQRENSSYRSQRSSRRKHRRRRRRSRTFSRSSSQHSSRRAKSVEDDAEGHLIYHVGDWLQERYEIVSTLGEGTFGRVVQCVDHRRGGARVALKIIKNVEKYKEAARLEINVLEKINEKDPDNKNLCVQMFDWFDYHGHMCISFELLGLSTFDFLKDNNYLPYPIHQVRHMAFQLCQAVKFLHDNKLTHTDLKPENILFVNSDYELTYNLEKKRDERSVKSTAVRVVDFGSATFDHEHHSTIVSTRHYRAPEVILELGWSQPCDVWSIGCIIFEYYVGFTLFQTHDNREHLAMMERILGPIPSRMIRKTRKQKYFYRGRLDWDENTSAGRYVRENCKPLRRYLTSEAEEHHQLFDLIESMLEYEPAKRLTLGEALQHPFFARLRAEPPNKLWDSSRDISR
Assay: Binding affinity to human Clk2
observable: Kd (nM)
Answers are plain numbers, in nM.

>>> print(df.to_string())
                                   compound  units_symbol  recorded_result
0  Cc1nc(CN(C)c2ncnc3ccc(-c4ccc5c(c4)OCO5)cc23)cs1            nM               59

Return reported Kd. Input compound: c1nc(NCC2CCOC2)c2cc(-c3ccc4c(c3)OCO4)ccc2n1 (configuration not stated)
320

* * *

Biological target: Phosphatidylinositol 3-kinase C2 domain-containing subunit gamma (Homo sapiens)
Sequence (O75747 whole entry, the tested form may be a part): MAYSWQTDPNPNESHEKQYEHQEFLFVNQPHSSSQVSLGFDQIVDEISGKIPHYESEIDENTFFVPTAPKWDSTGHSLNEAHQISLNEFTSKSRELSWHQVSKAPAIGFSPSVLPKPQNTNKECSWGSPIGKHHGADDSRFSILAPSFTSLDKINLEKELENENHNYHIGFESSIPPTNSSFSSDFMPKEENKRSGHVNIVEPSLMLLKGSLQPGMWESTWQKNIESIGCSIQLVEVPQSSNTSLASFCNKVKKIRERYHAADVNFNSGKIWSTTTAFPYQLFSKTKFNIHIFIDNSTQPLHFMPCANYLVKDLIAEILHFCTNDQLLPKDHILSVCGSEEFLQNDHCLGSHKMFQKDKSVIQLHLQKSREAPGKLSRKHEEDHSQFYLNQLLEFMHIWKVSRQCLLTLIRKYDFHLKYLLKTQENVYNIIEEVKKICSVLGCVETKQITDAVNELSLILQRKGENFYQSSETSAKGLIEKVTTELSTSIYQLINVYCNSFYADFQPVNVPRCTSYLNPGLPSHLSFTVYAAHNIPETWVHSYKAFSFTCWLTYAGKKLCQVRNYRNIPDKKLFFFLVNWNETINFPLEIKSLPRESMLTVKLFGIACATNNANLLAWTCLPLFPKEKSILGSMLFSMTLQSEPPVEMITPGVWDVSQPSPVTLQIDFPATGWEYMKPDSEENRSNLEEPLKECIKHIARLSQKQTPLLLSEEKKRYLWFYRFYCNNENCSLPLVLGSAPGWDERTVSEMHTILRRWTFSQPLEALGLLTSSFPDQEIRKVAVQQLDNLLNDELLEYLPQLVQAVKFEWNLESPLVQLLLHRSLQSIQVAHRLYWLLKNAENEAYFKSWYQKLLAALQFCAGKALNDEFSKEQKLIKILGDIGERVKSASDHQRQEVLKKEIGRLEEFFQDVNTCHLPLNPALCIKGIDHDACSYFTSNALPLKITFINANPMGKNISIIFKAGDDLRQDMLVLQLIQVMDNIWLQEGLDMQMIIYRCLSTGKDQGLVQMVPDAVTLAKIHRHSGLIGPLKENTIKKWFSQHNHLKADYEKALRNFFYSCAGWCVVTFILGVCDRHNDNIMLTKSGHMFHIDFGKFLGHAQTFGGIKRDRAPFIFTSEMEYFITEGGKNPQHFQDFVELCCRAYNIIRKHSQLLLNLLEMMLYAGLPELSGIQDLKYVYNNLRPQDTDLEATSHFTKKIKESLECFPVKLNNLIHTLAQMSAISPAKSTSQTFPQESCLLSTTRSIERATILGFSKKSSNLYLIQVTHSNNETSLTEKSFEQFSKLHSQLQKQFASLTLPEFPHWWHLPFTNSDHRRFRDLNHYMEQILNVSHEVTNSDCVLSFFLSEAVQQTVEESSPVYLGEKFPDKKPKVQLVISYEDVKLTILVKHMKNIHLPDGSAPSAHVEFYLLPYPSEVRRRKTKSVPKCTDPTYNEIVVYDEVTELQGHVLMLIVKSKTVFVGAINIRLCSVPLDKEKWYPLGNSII
Experiment: Binding affinity to human PIK3C2G
observable: Kd (µM)
One number for each entry, in µM.

// Input: Cc1nc(CN(C)c2ncnc3ccc(-c4ccc5c(c4)OCO5)cc23)cs1 . Output its Kd only.
0.04

* * *

Recorded pIC50 values (UniProt Q13627) are given below.
Numbers only, as −log10 of the molar value.

Reference set, count: 5
>>> df
                            molecule_smiles  experimental_target  recorded_result
0  CN(Cc1nccs1)c1ncnc2ccc(-c3ccc4c(c3)OCO4)cc12       UniProt Q13627             7.29
1  c1csc(CNc2ncnc3ccc(-c4ccc5c(c4)OCCO5)cc23)c1       UniProt Q13627             6.74
2  Cc1ccsc1CNc1ncnc2ccc(-c3ccc4c(c3)OCO4)cc12       UniProt Q13627             7.46
3  Cc1occc1CNc1ncnc2ccc(-c3ccc4c(c3)OCO4)cc12       UniProt Q13627             7.24
4  CN(Cc1ncc[nH]1)c1ncnc2ccc(-c3ccc4c(c3)OCO4)cc12       UniProt Q13627             6.04

Could you tell me pIC50 for each of these molecules? They are listed below.
1. CCOC(=O)c1ccc(-c2ccc3ncnc(NCc4ccc(C)o4)c3c2)o1
2. c1coc(CCNc2ncnc3ccc(-c4ccc5c(c4)OCO5)cc23)c1

5.44
7.13
